measuredOn: T1, bovine serum albumin (bovine, UniProt P02769 25-607)
T1 construct: bovine serum albumin; Free BSA in PBS, not the crosslinked BSA shell of the nanoparticles; also called BSA; source: bought: Sigma
testName: fluorescence polarisation; fluorescence anisotropy of NBD; constant 0.4 uM ATRAM-NBD, increasing BSA (0.25-15 uM); PBS; room temperature; excitation 460 nm, emission 535 nm
experimentalConditions: both partners purified
Where no end group is shown, it is not given here. The star is where a group is joined. NBD = O=[N+]([O-])c1ccc(*)c2nonc12
readout: Kd (nM)
One number for each entry, in nM.

Problem: Look up Kd for this binder: GLAGLAGLLGLEGLLGLPLGLLEGLWLGLELEC(NBD)N (designed pH-responsive ATRAM peptide, variant with a cysteine (underlined in print) next to the C-terminal residue; also called ATRAM-NBD; source: C-terminal cysteine ATRAM variant labelled with NBD; purified by PD-10 gel filtration and reverse-phase HPLC (parent ATRAM peptide: synthesized by Selleck Chemicals, Fmoc)) [NBD-labeled ATRAM (acidity-triggered rational membrane peptide), C-terminal cysteine variant]
Result: 295
